System: TRPC4 beta (transient receptor potential cation channel C4), mouse
Test protocol: potentiation of DAMGO EC20 TRPC4 response – cell-based, Fluo-4, HEK293 TRPC4beta/mu-opioid, confirmation (AID 2555)
Test settings: DAMGO EC20, Fluo-4 calcium flux, at 10 µM
Active and inactive are the calls of the source.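 The calls were made as follows: active = primary screen hit whose calcium fluorescence ratio, in both repeats, exceeds the weak agonist control mean by 3 SD; inactive = the rest.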
Classes used: active, inactive

Compound	Class label
CN(CC1CCCN(CCc2cccc(C(F)(F)F)c2)C1)C(=O)c1cc2ccccc2o1 (stereo not given)	inactive
O=C(Cc1cccc(F)c1F)NC1CCCN(Cc2ccc(Cl)cc2)C1 (stereo not given)	inactive
Cc1ccc(NC(=O)c2cc(N3C(=O)C=CC3=O)ccc2N2CCOCC2)cc1	inactive
COC(=O)c1ccc(N2CCN(C)CC2)c(NC(=O)c2cccs2)c1	inactive
CCCn1c(NC(=O)c2ccc(Cl)c(S(=O)(=O)N3CCCC3)c2)nc2ccccc21	active
CCOC(=O)C1(CCOc2ccccc2)CCN(Cc2cccs2)CC1	inactive
Cc1ccc(-n2cc(CNC(C)c3cnn(C)c3C)c(-c3ccc(F)cc3)n2)cc1 (stereo not given)	inactive
CC(OCC(O)CN(C)CCOc1ccccc1)c1ccc(Cl)cc1 (stereo not given)	inactive
Clc1cc(Cl)cc(C2=NC(Cc3ccccc3)CO2)c1 (stereo not given)	inactive
CCC1(C(=O)c2ccccc2)C(c2ccc([N+](=O)[O-])cc2)C1(C(=O)OC)C(=O)OC (stereo not given)	inactive

---

Tested on: TRPC4 beta (transient receptor potential cation channel C4), mouse
Test protocol: potentiation of DAMGO EC20 TRPC4 response – cell-based, Fluo-4, HEK293 TRPC4beta/mu-opioid, confirmation (AID 2555)
Test settings: DAMGO EC20, Fluo-4 calcium flux, at 10 µM
The source made the active and inactive calls.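 Rule for the calls: active = primary screen hit whose calcium fluorescence ratio, in both repeats, exceeds the weak agonist control mean by 3 SD; inactive = the rest.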
Classes used: active, inactive

Molecule	Class label
Cc1ccc(C(C)C)cc1OCCCCN1CCCC1	active
CCOc1ccccc1C1CC(c2ccc(Cl)cc2)Nc2nc(N)nn21 (stereo not given)	inactive
CC(=O)Nc1cccc(C(=O)NCC2(N3CCCCC3)CCCCC2)c1	inactive
Cc1ccccc1OCCn1c(C)nc2ccccc21	inactive
CC(C)Cc1nc(N2CCN(C(=O)C(C)C)CC2)c(C#N)c2c1CCC2	active
c1ccn2cc(C34CC5CC(CC(C5)C3)C4)nc2c1	inactive
O=C(C[n+]1cccc(CNC(=O)c2ccc(OC(F)F)cc2)c1)Nc1ccc(SC(F)F)cc1	inactive
CCOc1ccc(-n2c(C)cc(/C=C3/C(=N)N4C(=NC3=O)SN=C4S(C)(=O)=O)c2C)cc1	inactive
CCCCNc1nc(-c2ccccc2)c(C(=O)OCC)cc1C#N	inactive
OCCNCc1cc(Br)ccc1OCc1ccccc1	inactive
CC1(C)CC(NC(=O)c2cc(COc3cccc(C(F)(F)F)c3)on2)CCO1 (stereo not given)	inactive
Cn1cc(-c2nc3ccccc3[nH]2)c2ccccc21	inactive
Cn1c(CN2CCN(c3ccccc3NS(C)(=O)=O)CC2)nc2ccccc21	inactive
O=C(Nc1ccnn1C1CCN(Cc2cc3ccccc3[nH]2)CC1)C1CCOC1 (stereo not given)	inactive
CCOC(=O)C1(Cc2ccccc2C)CCCN(Cc2ccc(NC(C)=O)cc2)C1 (stereo not given)	inactive
Cc1oc2c(c1C(=O)c1ccccc1)C(=O)C(=O)c1ccccc1-2	inactive
NCCc1nnc(SCc2ccccc2)o1	inactive
CCn1cc(CN2CCC(n3nccc3NC(=O)CCOc3ccccc3)CC2)c(C)n1	inactive
COc1ccc(CNC(=O)C(C)NCc2ccc(S(N)(=O)=O)cc2)cc1 (stereo not given)	inactive
CC(=O)c1ccc(S(=O)(=O)NCc2ccc(C(=O)NCC(c3ccccc3)N(C)C)cc2)cc1 (stereo not given)	inactive
CN1CCN(Cc2nc3c(c(=O)[nH]c(=O)n3C)n2Cc2c(F)cccc2Cl)CC1	inactive
CCOc1cc(CNCc2cccs2)ccc1OCC(=O)NC(C)(C)C	inactive
CCOC(=O)c1cnc(-n2nc(C)cc2C)nc1NC1CCCCC1	inactive
Cc1[nH]c2ccccc2c1C(=O)CN1C(=O)NC(C)(c2ccc(Cl)cc2Cl)C1=O (stereo not given)	active
CC(C)c1nc2ccc(Br)cn2c1NC1CCCC1	inactive
COc1cc(/C=C2\SC(=O)N(c3ccccc3Cl)C2=O)cc([N+](=O)[O-])c1O	inactive
CCc1ccc(C(=O)c2cnc3ccc(OC)cc3c2N2CCN(CC)CC2)cc1	inactive
CCN(CC)c1ncnc2scc(C3COc4ccccc4O3)c12 (stereo not given)	inactive
O=C(Nc1nc2c(s1)CN(Cc1ccccc1)CC2)c1c(F)cccc1F	active
COCCNc1c2c(nc3ccccc13)CCC2	inactive
NC(=O)C(c1cccc(Cl)c1)c1ncc(C(F)(F)F)cc1Cl (stereo not given)	inactive
CCOC(=O)c1c(C)n(-c2ccc(C)cc2)c2ccc(OCC(O)CNCC3CCCO3)cc12 (stereo not given)	inactive
Cc1sc2ncnc(SCC(=O)N(C)C3CCS(=O)(=O)C3)c2c1C (stereo not given)	active
COC(=O)c1c(NC(=O)CSc2ncn[nH]2)sc(C)c1C	inactive
Cc1cc(NC(=O)CSCC(=O)Nc2ccc(Cl)c(C(F)(F)F)c2)no1	inactive
CC(C)C(=O)N1CCN(c2ccccc2NC(=O)c2ccco2)CC1	inactive
N=c1c(C(=O)NCC2CCCO2)cc2c(=O)n3ccccc3nc2n1Cc1ccc(Cl)cc1 (stereo not given)	active
CCC(CC)c1nnc(NC(=O)c2c(C)nn(Cc3ccccc3Cl)c2C)s1	inactive
CCN(CC)CCn1c2ccccc2c2cnc(N)c(C#N)c21	inactive
COc1ccc(CN2CCN(Cc3ccccc3F)CC2)c(OC)c1	inactive
COc1ccc(Nc2cc(C)nc3ccc(OC)cc23)cc1	inactive
COc1ccc(/C=C/C(=O)Oc2cc(O)cc(O)c2)cc1	inactive
COc1ccc(CCNC(=O)C2CCN(C(=O)c3ccc(C(C)(C)C)cc3)CC2)cc1	inactive
Cn1c(=O)c2c(nc(SCc3cccnc3)n2Cc2ccc(F)cc2)n(C)c1=O	inactive
O=S(=O)(NCC1NCCc2ccccc21)c1ccccc1 (stereo not given)	inactive
